# targetUnderTest: Serine/threonine-protein kinase pim-1 (Homo sapiens, UniProt P11309)
# Sequence (P11309 whole entry): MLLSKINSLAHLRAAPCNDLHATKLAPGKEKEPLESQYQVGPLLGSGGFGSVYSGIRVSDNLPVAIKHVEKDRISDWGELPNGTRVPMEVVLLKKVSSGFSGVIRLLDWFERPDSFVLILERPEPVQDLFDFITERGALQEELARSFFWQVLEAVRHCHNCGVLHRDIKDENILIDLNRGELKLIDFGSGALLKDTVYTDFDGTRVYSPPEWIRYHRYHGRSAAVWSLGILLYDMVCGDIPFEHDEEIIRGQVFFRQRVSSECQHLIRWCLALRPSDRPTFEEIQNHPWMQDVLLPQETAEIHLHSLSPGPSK
recordedEndpoint: IC50

In [3]: df
Out[3]:
                                   compound  recordedendpoint    val
0  Cn1c2c(c3ccc(Cl)c(Cl)c31)C(C#N)C1(CCNCC1)NC2=O (racemic)              IC50  60 nM

* * *

Listed next: entries and their corresponding ΔTm.
# targetUnderTest: Death-associated protein kinase 3 (Homo sapiens) (UniProt O43293)
# Sequence (O43293 whole entry, looked up): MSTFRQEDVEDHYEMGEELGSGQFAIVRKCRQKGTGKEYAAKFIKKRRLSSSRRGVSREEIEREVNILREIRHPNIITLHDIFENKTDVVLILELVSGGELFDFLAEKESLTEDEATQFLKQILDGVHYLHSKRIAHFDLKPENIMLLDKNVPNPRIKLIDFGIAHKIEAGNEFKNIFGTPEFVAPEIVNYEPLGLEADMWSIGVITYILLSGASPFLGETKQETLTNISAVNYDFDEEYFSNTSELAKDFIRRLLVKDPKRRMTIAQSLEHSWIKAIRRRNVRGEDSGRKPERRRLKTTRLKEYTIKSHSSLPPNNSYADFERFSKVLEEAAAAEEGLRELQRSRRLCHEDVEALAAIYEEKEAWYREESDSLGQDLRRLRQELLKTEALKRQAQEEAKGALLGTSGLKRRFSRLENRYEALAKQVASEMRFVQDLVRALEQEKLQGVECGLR
# runDescription: Binding affinity to N-terminus His6-tagged DAPK3 expressed in Escherichia coli BL21 (DE3) cells coexpressing pCOEX assessed as change in thermal denaturation at 10 uM by thermal stability shift assay
recordedEndpoint: ΔTm (°C)

>>> print(df.to_string())
                                   compound                           targetundertest  recordedendpoint  measurementunit  val
0  CCC1(CC)NC(=O)c2c(c3ccc(Cl)c(Cl)c3n2C)C1C#N (stereo not given)  Death-associated protein kinase 3 (Homo sapiens) (UniProt O43293)               ΔTm               °C  2.4
1  CC(=O)NCC1c2c(n(C)c3c(Cl)c(Cl)ccc23)C(=O)NC1(C)C (racemic)  Death-associated protein kinase 3 (Homo sapiens) (UniProt O43293)               ΔTm               °C  0.8
2  CN1CCC2(CC1)NC(=O)c1c(c3ccc(Cl)c(Cl)c3n1C)C2C#N (racemic)  Death-associated protein kinase 3 (Homo sapiens) (UniProt O43293)               ΔTm               °C  6.3
3  Cn1c2c(c3ccc(Cl)c(Cl)c31)C(C#N)C1(CCCCC1)NC2=O (racemic)  Death-associated protein kinase 3 (Homo sapiens) (UniProt O43293)               ΔTm               °C  4.7
4  N#CC1c2c([nH]c3c(Cl)c(Cl)ccc23)C(=O)NC12CCCCC2 (racemic)  Death-associated protein kinase 3 (Homo sapiens) (UniProt O43293)               ΔTm               °C  3.4

* * *

Listed next: entries and their corresponding ΔTm.
# targetUnderTest: Tyrosine-protein kinase Fes/Fps (Homo sapiens)
# runDescription: Binding affinity to FES assessed as change in thermal denaturation at 10 uM by thermal stability shift assay
recordedEndpoint: ΔTm (°C)

In [3]: df
Out[3]:
                                    molecule  recordedendpoint   val
 0  Cn1c2c(c3ccc(Cl)c(Cl)c31)C(C#N)C1(CCN(C(=O)OC(C)(C)C)CC1)NC2=O (racemic)               ΔTm   0.4
 1    Cn1c2c(Cl)c(Cl)ccc2c2cc(N)[nH]c(=O)c21               ΔTm   0.4
 2       Cn1c2c(Cl)c(Cl)ccc2c2cn[nH]c(=O)c21               ΔTm   0.2
 3  CCN1CCC2(CC1)NC(=O)c1c(c3ccc(Cl)c(Cl)c3n1C)C2C#N (racemic)               ΔTm   0.7
 4  Cn1c2c(c3ccc(Cl)c(Cl)c31)C(CN)C(C)(C)NC2=O (racemic)               ΔTm   0.3
 5  Cn1c2c(c3ccc(Cl)c(Cl)c31)C(C#N)C(C)(C)NC2=O (stereo unspecified)               ΔTm  -0.3
 6  CN1CCC2(CC1)NC(=O)c1c(c3ccc(Cl)c(Cl)c3n1C)C2C#N (racemic)               ΔTm   0.5
 7  CC(=O)NCC1c2c(n(C)c3c(Cl)c(Cl)ccc23)C(=O)NC1(C)C (racemic)               ΔTm   0.4
 8  Cn1c2c(c3ccccc31)C(C#N)C(C)(C)NC2=O (stereo unspecified)               ΔTm     0
 9       Cn1c2c(Cl)c(Cl)ccc2c2cc[nH]c(=O)c21               ΔTm   0.1
10  N#CC1c2c([nH]c3c(Cl)c(Cl)ccc23)C(=O)NC12CCCCC2 (racemic)               ΔTm  -0.4
11  Cn1c2c(c3ccc(Cl)c(Cl)c31)C(C#N)C1(CCNCC1)NC2=O (racemic)               ΔTm     4
12  Cn1c2c(c3ccc(Cl)c(Cl)c31)C(C#N)C1(CCOCC1)NC2=O (stereo unspecified)               ΔTm     0
13  CC1(C)NC(=O)c2[nH]c3c(Cl)c(Cl)ccc3c2C1C#N (stereo unspecified)               ΔTm  -0.2
14  Cn1c2c(c3ccc(Cl)c(Cl)c31)C(C#N)C1(CCCC1)NC2=O (stereo unspecified)               ΔTm     0
15  CCC1(CC)NC(=O)c2c(c3ccc(Cl)c(Cl)c3n2C)C1C#N (stereo unspecified)               ΔTm     0
